biological target: pooled human IgG
Each entry below lists one item and its recorded Enzyme Activity Endpoint Assay (purified): Fab′2 value.
Kindly provide the numeric value in ng/µL only, without the unit symbol.

Consider the reported Enzyme Activity Endpoint Assay (purified): Fab′2 for these proteins:
1) PRT-65 (protein) MANQEIRYSEVTPYHVTSVWTKGVTPPANFTQGEDVFHAPYVANQGWYDITKTFNGKDDLLCGAATAGNMLHWWFDQNKDQIKRYLEEHPEKQKINFNGEQMFDVKEAIDTKNHQLDSKLFEYFKEKAFPYLSTKHLGVFPDLVIDMFINGYRLSLTNHGPTPVKEGSKDPRGGIFDAVFTRGDQSKLLTSRHDFKEKNLKEISDLIKKELTEGKALGLSHTYANVRINHVINLWGADFDSNGNLKAIYVTDSDSNASIGMKKYFVGVNSAGKVAISAKEIKEDNIGAQVLGLFTLSTGQDSWNQTN: 35
2) PRT-58 (protein) MANQEIRYSEVTPYHVTSVWTKGVTPPANFTQGEDVFHAPYVANQGWYDINKTFNGKDDLLCGAATAGNMLHWWFDQNKEYIDRYLKEHPEKQKINFNGEQMFDVKEAIDTKNHQLDSKLFEYFKEKAFPYLSTKHLGVFPDLVLDMFINGYRLSLTNHGPTPVKEGSKDPRGGFFDDVFTRGDQSKLLTSRHDFKEKNLKEISDLIKKELTEGKALGLSHTYANVRINHVINLWGADFDSNGNLKAIYVTDSDSNASIGMKKYFVGVNSAGKVAISAKEIKEDNIGAQVLGLFTLSTGQDSWNQTN: 0
3) PRT-70 (protein) MANQEIRYSEVTPYHVTSVWTKGVTPPANFTQGEDVFHAPYVANQGWYDITKTFNGKDDLLCGAATAGNMLHWWFDQNKEQIKRYLEEHPEKQKINFNGEQMFDVKEAIDTKNHQLDSKLFEYFKEKAFPYLSTKHLGVFPDHVIDMFINGYRLSLTNHGPTPVKEGSKDPRGGIFDAVFTRGDQSKLLTSRHDFKEKNLKEISDLIKKELTEGKALGLSHTYANVRINHVINLWGADFDSNGNLKAIYVTDSDSNASIGMKKYFVGVNSAGKVAISAKEIKEDNIGAQVLGLFTLSTGQDSWNQTN: 47

Let us examine a further case.
Provide Enzyme Activity Endpoint Assay (purified): Fab′2 value for the following protein: PRT-64 (protein) MANQEIRYSEVTPYHVTSVWTKGVTPPANFTQGEDVFHAPYVANQGWYDITKTFNGKDDLLCGAATAGNMLHWWFDQNKDQIDRYLEEHPEKQKINFNGEQMFDVKEAIDTKNHQLDSKLFEYFKEKAFPYLSTKHLGVFPDHVIDMFINGYRLSLTNHGPTPVKEGSKDPRGGIFDAVFTRGDQSKLLTSRHDFKEKNLKEISDLIKKELTEGKALGLSHTYANVRINHVINLWGADFDSNGNLKAIYVTDSDSNASIGMKKYFVGVNSAGKVAISAKEIKEDNIGAQVLGLFTLSTGQDSWNQTN 50
